Molecular target: Human Cav2.2 channels (Homo sapiens)
Construct: expressed in transfected cells
Assay: Fluorescent assay for Cav2.2 channels using potassium depolarization (Table 2, In Vitro Activity, Cav 2.2 Activity)
Format: cell-based
Settings: 30 μM, read-out: % Inh at 30 μM
Record form. Attribute: inhibition at 30 µM. Fill in for each entry.
Answers are plain numbers, in %.

These recorded examples may help you get a feel for the data.
{"columns": ["molSmiles", "studyTarget", "propertyLabel", "val"],
 "data": [
  ["O=C(CC(c1ccccc1)c1ccccc1)NC1(C(=O)NCc2ccc(F)cc2F)CCCCC1", "Human Cav2.2 channels (Homo sapiens)", "inhibition at 30 µM", 101],
  ["O=C(CC(c1ccccc1)c1ccccc1)NC1(C(=O)NCc2nccs2)CCCCC1", "Human Cav2.2 channels (Homo sapiens)", "inhibition at 30 µM", 77],
  ["Cc1cccnc1CNC(=O)C1(NC(=O)CC(c2ccccc2)c2ccccc2)CCCCC1", "Human Cav2.2 channels (Homo sapiens)", "inhibition at 30 µM", 88],
  ["Cc1ccnc(N2CCN(C(=O)C3(NC(=O)CC(c4ccccc4)c4ccccc4)CCCCC3)CC2)c1", "Human Cav2.2 channels (Homo sapiens)", "inhibition at 30 µM", 85],
  ["Cc1cnc(CNC(=O)C2(NC(=O)CC(c3ccccc3)c3ccccc3)CCCCC2)cn1", "Human Cav2.2 channels (Homo sapiens)", "inhibition at 30 µM", 93],
  ["O=C(CC(c1ccccc1)c1ccccc1)NC1(C(=O)NCc2ccc(O)cc2)CCCCC1", "Human Cav2.2 channels (Homo sapiens)", "inhibition at 30 µM", 97],
  ["CS(=O)(=O)c1ccc(CNC(=O)C2(NC(=O)CC(c3ccccc3)c3ccccc3)CCCCC2)cc1", "Human Cav2.2 channels (Homo sapiens)", "inhibition at 30 µM", 96],
  ["O=C(CC(c1ccccc1)c1ccccc1)NC1(C(=O)NCc2ccc(F)cc2)CCCCC1", "Human Cav2.2 channels (Homo sapiens)", "inhibition at 30 µM", 102]
]}

Attention now turns to another entry.
[Q] For the compound `CC(C)(C)N1CCN(C(=O)C2(NC(=O)CC(c3ccccc3)c3ccccc3)CCCCC2)CC1` , what inhibition at 30 µM is on record?
[A] 65

###

Target: Human Cav2.2 channels (Homo sapiens, UniProt Q00975)
Construct: expressed in transfected cells
Sequence (Q00975 whole entry): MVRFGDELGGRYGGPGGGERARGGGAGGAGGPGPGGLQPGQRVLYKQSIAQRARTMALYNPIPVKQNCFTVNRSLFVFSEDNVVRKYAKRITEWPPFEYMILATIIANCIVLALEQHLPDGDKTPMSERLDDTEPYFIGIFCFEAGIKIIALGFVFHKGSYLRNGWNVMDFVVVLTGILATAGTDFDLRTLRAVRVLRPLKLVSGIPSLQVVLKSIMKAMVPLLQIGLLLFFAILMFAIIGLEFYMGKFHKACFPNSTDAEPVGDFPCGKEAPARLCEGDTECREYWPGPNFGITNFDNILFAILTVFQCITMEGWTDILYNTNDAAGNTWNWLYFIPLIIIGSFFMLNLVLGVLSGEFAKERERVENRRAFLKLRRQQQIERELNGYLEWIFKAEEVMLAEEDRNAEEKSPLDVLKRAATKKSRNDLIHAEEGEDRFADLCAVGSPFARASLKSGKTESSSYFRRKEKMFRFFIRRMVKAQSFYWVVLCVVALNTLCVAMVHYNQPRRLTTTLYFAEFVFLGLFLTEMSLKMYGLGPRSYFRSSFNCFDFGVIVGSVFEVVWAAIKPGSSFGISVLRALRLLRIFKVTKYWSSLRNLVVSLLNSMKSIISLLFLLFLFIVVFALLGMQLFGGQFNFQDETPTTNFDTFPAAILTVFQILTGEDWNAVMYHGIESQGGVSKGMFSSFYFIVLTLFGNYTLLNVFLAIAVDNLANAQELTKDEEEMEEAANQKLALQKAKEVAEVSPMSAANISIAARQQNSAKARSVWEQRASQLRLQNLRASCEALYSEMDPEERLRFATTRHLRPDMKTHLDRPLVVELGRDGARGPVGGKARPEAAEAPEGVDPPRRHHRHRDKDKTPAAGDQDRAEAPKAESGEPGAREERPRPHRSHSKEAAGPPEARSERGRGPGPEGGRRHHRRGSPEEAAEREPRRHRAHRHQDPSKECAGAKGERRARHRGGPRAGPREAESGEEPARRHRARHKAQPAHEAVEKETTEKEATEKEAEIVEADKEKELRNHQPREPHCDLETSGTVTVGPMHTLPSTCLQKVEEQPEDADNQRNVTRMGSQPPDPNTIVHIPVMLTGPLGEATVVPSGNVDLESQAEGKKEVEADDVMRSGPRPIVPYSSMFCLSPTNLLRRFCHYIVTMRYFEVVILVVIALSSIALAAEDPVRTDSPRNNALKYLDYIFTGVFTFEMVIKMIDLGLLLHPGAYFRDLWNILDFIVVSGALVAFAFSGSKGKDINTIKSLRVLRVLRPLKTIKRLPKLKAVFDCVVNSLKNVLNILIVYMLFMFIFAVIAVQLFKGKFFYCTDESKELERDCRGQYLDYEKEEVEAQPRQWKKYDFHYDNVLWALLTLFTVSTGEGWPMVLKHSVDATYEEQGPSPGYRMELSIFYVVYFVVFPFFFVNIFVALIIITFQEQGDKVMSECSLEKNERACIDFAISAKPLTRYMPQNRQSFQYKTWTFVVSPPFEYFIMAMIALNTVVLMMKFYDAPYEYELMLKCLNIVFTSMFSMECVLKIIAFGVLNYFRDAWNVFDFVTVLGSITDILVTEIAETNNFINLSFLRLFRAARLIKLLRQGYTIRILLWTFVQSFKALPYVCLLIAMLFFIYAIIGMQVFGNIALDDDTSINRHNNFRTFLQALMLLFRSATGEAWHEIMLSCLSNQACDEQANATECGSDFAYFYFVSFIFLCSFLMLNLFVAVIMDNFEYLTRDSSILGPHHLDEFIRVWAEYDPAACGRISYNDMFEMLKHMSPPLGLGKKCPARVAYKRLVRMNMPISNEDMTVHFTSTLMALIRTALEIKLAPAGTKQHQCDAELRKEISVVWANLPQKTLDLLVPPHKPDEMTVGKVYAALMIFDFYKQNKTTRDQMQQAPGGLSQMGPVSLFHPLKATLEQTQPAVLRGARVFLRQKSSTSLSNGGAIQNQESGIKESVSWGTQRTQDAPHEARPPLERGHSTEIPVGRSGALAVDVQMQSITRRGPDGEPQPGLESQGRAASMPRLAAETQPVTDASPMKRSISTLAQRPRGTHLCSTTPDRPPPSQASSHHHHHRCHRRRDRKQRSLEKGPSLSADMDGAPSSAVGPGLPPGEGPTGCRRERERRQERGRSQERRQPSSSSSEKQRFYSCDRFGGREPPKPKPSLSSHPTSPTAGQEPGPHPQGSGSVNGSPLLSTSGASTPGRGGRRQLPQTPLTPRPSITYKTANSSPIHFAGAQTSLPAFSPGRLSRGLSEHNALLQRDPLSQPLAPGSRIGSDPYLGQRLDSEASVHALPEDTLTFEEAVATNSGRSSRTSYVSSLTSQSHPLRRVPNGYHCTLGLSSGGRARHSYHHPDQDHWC
Sequence (P54289 25-1103 partner): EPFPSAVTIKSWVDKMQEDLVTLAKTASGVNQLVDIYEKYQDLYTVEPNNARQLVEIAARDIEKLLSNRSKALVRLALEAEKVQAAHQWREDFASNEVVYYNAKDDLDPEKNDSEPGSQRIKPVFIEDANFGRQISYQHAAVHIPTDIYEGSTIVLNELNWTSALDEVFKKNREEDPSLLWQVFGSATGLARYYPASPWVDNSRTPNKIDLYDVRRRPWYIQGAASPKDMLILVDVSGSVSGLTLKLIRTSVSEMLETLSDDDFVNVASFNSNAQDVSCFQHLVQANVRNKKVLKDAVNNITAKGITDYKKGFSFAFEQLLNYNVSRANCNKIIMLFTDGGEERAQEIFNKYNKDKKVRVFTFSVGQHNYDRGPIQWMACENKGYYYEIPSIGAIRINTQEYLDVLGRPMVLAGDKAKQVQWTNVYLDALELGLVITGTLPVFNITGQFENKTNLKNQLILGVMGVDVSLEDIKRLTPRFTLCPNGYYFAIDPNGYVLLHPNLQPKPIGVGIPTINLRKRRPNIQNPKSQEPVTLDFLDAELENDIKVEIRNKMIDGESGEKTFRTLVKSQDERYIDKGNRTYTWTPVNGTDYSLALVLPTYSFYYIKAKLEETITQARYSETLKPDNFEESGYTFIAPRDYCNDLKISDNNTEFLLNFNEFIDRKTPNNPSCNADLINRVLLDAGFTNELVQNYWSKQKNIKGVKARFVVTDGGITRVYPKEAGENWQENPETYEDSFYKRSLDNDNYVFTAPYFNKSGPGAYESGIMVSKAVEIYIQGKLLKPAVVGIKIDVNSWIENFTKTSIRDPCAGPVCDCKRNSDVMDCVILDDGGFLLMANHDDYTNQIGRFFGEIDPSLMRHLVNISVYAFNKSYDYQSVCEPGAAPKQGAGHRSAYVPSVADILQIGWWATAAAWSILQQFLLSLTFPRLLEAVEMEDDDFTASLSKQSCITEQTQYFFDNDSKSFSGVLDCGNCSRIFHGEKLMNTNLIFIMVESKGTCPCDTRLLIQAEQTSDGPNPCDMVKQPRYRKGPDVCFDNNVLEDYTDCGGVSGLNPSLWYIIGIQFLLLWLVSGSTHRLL
Sequence (P54284 whole entry partner): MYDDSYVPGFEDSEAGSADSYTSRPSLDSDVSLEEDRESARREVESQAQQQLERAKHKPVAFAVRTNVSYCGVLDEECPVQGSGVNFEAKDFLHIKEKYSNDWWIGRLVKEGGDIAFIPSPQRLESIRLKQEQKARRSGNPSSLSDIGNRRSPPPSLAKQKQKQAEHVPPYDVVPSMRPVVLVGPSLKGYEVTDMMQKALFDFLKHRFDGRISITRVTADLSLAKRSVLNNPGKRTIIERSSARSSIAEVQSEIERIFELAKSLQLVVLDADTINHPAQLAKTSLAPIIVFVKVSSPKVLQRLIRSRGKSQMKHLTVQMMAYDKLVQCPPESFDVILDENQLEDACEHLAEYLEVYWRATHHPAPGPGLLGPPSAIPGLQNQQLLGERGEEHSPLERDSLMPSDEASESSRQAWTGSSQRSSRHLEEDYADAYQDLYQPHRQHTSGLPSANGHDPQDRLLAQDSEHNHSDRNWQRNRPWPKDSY
Assay: Fluorescent assay for Cav2.2 channels using potassium depolarization (Table 2, In Vitro Activity, Cav 2.2 Activity)
Format: cell-based
Conditions: 30 μM, read-out: % Inh at 30 μM
Record form. Attribute: inhibition at 30 µM. Fill in for each entry.
Answers are plain numbers, in %.

Need inhibition at 30 µM for each of these compounds.
1. Cc1ccc(N2CCN(C(=O)C3(NC(=O)CC(c4ccccc4)c4ccccc4)CCCCC3)CC2)cc1C
2. Cc1ccccc1C(CC(=O)NC1(C(=O)N2CCN(c3ccccc3)CC2)CCCCC1)c1ccccc1C
3. O=C(CC(c1ccccc1)c1ccccc1)NC1(C(=O)N2CCN(c3cccc(F)c3)CC2)CCCCC1
4. Cc1ccccc1C(CC(=O)NC1(C(=O)N2CCN(C(C)(C)C)CC2)CCCCC1)c1ccccc1C

[A]
1: 98; 2: 96; 3: 81; 4: 92

###

Record form. Attribute: IC50. Fill in for each entry.
Target: UniProt:Q00975
Test: Fluorescent assay for Cav2.2 channels using potassium depolarization (Table 2, In Vitro Activity, Cav 2.2 Activity)
Settings: 30 mM K
Answers are plain numbers, in nM.

These recorded examples may help you get a feel for the data.
{"columns": ["compound", "IC50 (nM)"],
 "data": [
  ["COc1ccc(CNC(=O)C2(NC(=O)CC(c3ccccc3)c3ccccc3)CCCCC2)cc1 [Compound 9]", 170],
  ["Cc1ccnc(N2CCN(C(=O)C3(NC(=O)CC(c4ccccc4)c4ccccc4)CCCCC3)CC2)c1 [Compound 16]", 2750],
  ["O=C(CC(c1ccccc1)c1ccccc1)NC1(C(=O)N2CCN(c3ccc(Cl)cc3)CC2)CCCCC1 [Compound 11]", 690],
  ["O=C(CC(c1ccccc1)c1ccccc1)NC1(C(=O)N2CCN(c3ccc(C(F)(F)F)cc3)CC2)CCCCC1 [Compound 13]", 590],
  ["O=C(CC(c1ccccc1)c1ccccc1)NC1(C(=O)NCc2cccc(C(F)(F)F)c2)CCCCC1 [Compound 7]", 190],
  ["Cc1ccc(N2CCN(C(=O)C3(NC(=O)CC(c4ccccc4)c4ccccc4)CCCCC3)CC2)cc1C [Compound 12]", 370]
]}

Need IC50 for each of these compounds.
1. O=C(CC(c1ccccc1)c1ccccc1)NC1(C(=O)NCc2ccc(F)cc2)CCCCC1 [Compound 8]
2. O=C(CC(c1ccccc1)c1ccccc1)NC1(C(=O)N2CCN(c3ccccc3)CC2)CCCCC1 [Compound 4]

[A]
1. 190
2. 340

###

Molecular target: Human Cav2.2 channels (Homo sapiens, UniProt Q00975)
Construct: expressed in transfected cells
Assay: Fluorescent assay for Cav2.2 channels using potassium depolarization (Table 2, In Vitro Activity, Cav 2.2 Activity)
Format: cell-based
Conditions: 10 μM, read-out: % Inh at 10 μM
Record form. Attribute: inhibition at 10 µM. Fill in for each entry.

Need inhibition at 10 µM for each of these compounds.
1. O=C(CC(c1ccccc1)c1ccccc1)NC1(C(=O)N2CCN(c3ccc(Cl)cc3)CC2)CCCCC1
2. O=C(CC(c1ccccc1)c1ccccc1)NC1(C(=O)NCc2ccc(F)cc2)CCCCC1
3. Cc1cnc(CNC(=O)C2(NC(=O)CC(c3ccccc3)c3ccccc3)CCCCC2)cn1
4. Cc1cc(CNC(=O)C2(NC(=O)CC(c3ccccc3)c3ccccc3)CCCCC2)no1

[A]
93%
99%
62%
71%

Need inhibition at 10 µM for each of these compounds.
1. O=C(CC(c1ccccc1)c1ccccc1)NC1(C(=O)NCc2nccs2)CCCCC1
2. O=C(CC(c1ccccc1)c1ccccc1)NC1(C(=O)N2CCN(c3cccc(F)c3)CC2)CCCCC1
3. Cc1cccnc1CNC(=O)C1(NC(=O)CC(c2ccccc2)c2ccccc2)CCCCC1
4. CS(=O)(=O)c1ccc(CNC(=O)C2(NC(=O)CC(c3ccccc3)c3ccccc3)CCCCC2)cc1

[A]
1: 55%; 2: 72%; 3: 81%; 4: 86%

Need inhibition at 10 µM for each of these compounds.
1. Cc1ccccc1C(CC(=O)NC1(C(=O)N2CCN(c3ccccc3)CC2)CCCCC1)c1ccccc1C
2. Cc1ccccc1C(CC(=O)NC1(C(=O)N2CCN(C(C)(C)C)CC2)CCCCC1)c1ccccc1C
3. O=C(CC(c1ccccc1)c1ccccc1)NC1(C(=O)N2CCN(c3ccccc3)CC2)CCCCC1
4. O=C(CC(c1ccccc1)c1ccccc1)NC1(C(=O)N2CCN(c3ccc(C(F)(F)F)cc3)CC2)CCCCC1
5. O=C(CC(c1ccccc1)c1ccccc1)NC1(C(=O)NCc2ccc(F)cc2F)CCCCC1
6. O=C(CC(c1ccccc1)c1ccccc1)NC1(C(=O)N2CCN(c3ccc(F)cc3F)CC2)CCCCC1

[A]
["95%", "67%", "80%", "96%", "96%", "81%"]

###

Biological target: Human Cav2.2 channels (Homo sapiens)
Construct: expressed in transfected cells
Assay: Fluorescent assay for Cav2.2 channels using potassium depolarization (Table 2, In Vitro Activity, Cav 2.2 Activity)
Assay type: cell-based
Conditions: 30 μM, read-out: % Inh at 30 μM
propertyLabel: inhibition at 30 µM (%)
One number for each entry, in %.

{"columns": ["molSmiles", "studyTarget", "propertyLabel", "unit", "val"],
 "data": [
  ["O=C(CC(c1ccccc1)c1ccccc1)NC1(C(=O)N2CCN(c3ccccc3)CC2)CCCCC1", "Human Cav2.2 channels (Homo sapiens)", "inhibition at 30 µM", "%", 90],
  ["Cc1cnccc1CNC(=O)C1(NC(=O)CC(c2ccccc2)c2ccccc2)CCCCC1", "Human Cav2.2 channels (Homo sapiens)", "inhibition at 30 µM", "%", 51],
  ["O=C(CC(c1ccccc1)c1ccccc1)NC1(C(=O)N2CCN(c3ccc(F)cc3F)CC2)CCCCC1", "Human Cav2.2 channels (Homo sapiens)", "inhibition at 30 µM", "%", 86],
  ["O=C(CC(c1ccccc1)c1ccccc1)NC1(C(=O)NCc2cccc(C(F)(F)F)c2)CCCCC1", "Human Cav2.2 channels (Homo sapiens)", "inhibition at 30 µM", "%", 102],
  ["O=C(CC(c1ccccc1)c1ccccc1)NC1(C(=O)N2CCN(c3ccc(C(F)(F)F)cc3)CC2)CCCCC1", "Human Cav2.2 channels (Homo sapiens)", "inhibition at 30 µM", "%", 95],
  ["O=C(CC(c1ccccc1)c1ccccc1)NC1(C(=O)N2CCN(c3ccc(Cl)cc3)CC2)CCCCC1", "Human Cav2.2 channels (Homo sapiens)", "inhibition at 30 µM", "%", 101],
  ["Cc1cc(CNC(=O)C2(NC(=O)CC(c3ccccc3)c3ccccc3)CCCCC2)no1", "Human Cav2.2 channels (Homo sapiens)", "inhibition at 30 µM", "%", 86]
]}

[Q] For the compound `COc1ccc(CNC(=O)C2(NC(=O)CC(c3ccccc3)c3ccccc3)CCCCC2)cc1` , what inhibition at 30 µM is on record?
[A] 102
